This collection of values is drawn from patent US20160045505A1.

Test system: L. donovani HU3 strain in mouse peritoneal macrophages
method description: Assay for proliferation of Leishmania parasites in infected mouse peritoneal macrophages (SybrGreen staining, high-content imaging, 5 days)
Assay type: cell-based, Leishmania donovani
cond: Leishmania donovani, Peritoneal macrophage, L. donovani in mouse peritoneal macrophages, inhibition of proliferation; read-out: L. donovani Macrophage EC50
The following compounds are shown together with reported EC50 values.

smiles representation | assay system | EC50
CC(C)OC(=O)Nc1ccc(F)c(-c2cn3cc(C(F)(F)F)cnc3n2)c1 | L. donovani HU3 strain in mouse peritoneal macrophages | > 32.4 µM
CC(C)OC(=O)Nc1cnc2nc(-c3cc(NC(=O)N4CC(N(C)C(=O)OC(C)(C)C)C4)ccc3F)cn2c1 | L. donovani HU3 strain in mouse peritoneal macrophages | > 38.2 µM
CS(=O)(=O)Nc1ccc(F)c(-c2cn3cc(Br)cnc3n2)c1 | L. donovani HU3 strain in mouse peritoneal macrophages | > 50 µM
COCCC(=O)Nc1cnc2nc(-c3cc(NC(=O)c4oc(C)nc4C)ccc3F)cn2c1 | L. donovani HU3 strain in mouse peritoneal macrophages | > 46.3 µM

###

Tested on: L. donovani HU3 strain in mouse peritoneal macrophages
method description: Assay for proliferation of Leishmania parasites in infected mouse peritoneal macrophages (SybrGreen staining, high-content imaging, 5 days)
Format: cell-based, Leishmania donovani
cond: Leishmania donovani, Peritoneal macrophage, L. donovani in mouse peritoneal macrophages, inhibition of proliferation; read-out: L. donovani Macrophage EC50
Define the label as label 1 when EC50 is strictly less than 1000 nM and as label 0 in all remaining cases.

compound | group label
CC(C)OC(=O)Nc1cnc2nc(-c3cc(NC(=O)N4CC5(COC5)C4)ccc3F)cn2c1 [Compound 294] | label 0
CNC(=O)Nc1ccc(F)c(-c2cn3cc(NC(=O)OC(C)C)cnc3n2)c1 [Compound 220] | label 0
CC(C)OC(=O)Nc1cnc2nc(-c3cc(NC(=O)c4cnc(C5CC5)o4)ccc3Cl)cn2c1 [Compound 60] | label 0
CC(C)OC(=O)Nc1cnc2nc(-c3cccc(NC(=O)c4nccs4)c3)cn2c1 [Compound 11] | label 0
O=C(Nc1ccc(F)c(-c2cn3cc(-c4ccccc4)cnc3n2)c1)N1CC(F)C1 [Compound 317] | label 1
Cc1nc(C)c(C(=O)Nc2ccc(F)c(-c3cn4cc(NC(=O)N5CCNC5=O)cnc4n3)c2)o1 [Compound 224] | label 0
Cc1nc(C)c(C(=O)Nc2ccc(F)c(-c3cn4cc(-c5ccc(CN(C)C)cc5)cnc4n3)c2)o1 [Compound 360] | label 1
Cc1nc(C)c(C(=O)Nc2ccc(F)c(-c3cn4cc(NC(=O)OC5CCCC5)cnc4n3)c2)o1 [Compound 306] | label 1
Cc1nc(C)c(C(=O)Nc2ccc(F)c(-c3cn4cc(-c5ccc(CCO)cc5)cnc4n3)c2)o1 [Compound 349] | label 1
CCC(=O)Nc1ccc(Cl)c(-c2cn3cc(NC(=O)OC(C)C)cnc3n2)c1 [Compound 247] | label 0
Cc1nc(C)c(C(=O)Nc2ccc(F)c(-c3cn4cc(NC(=O)C5(C)CCCO5)cnc4n3)c2)o1 (stereo not drawn) [Compound 193] | label 1
O=C(Nc1ccc(F)c(-c2cn3cc(Nc4ncccc4C(F)(F)F)cnc3n2)c1)N1CCCC1 [Compound 191] | label 1
CN(C)C(=O)Nc1ccc(F)c(-c2cn3cc(Cl)cnc3n2)c1 [Compound 225] | label 0
CC(C)OC(=O)Nc1cnc2nc(-c3cc(NC(=O)N4CCC(NC(=O)OC(C)(C)C)C4)ccc3Cl)cn2c1 (stereo not drawn) [Compound 268] | label 0
Cc1nc(C)c(C(=O)Nc2ccc(F)c(-c3cn4cc(NC(=O)C5(C)CC5)cnc4n3)c2)o1 [Compound 115] | label 1
CC(C)OC(=O)Nc1cnc2nc(-c3cc(NC(=O)c4ccc(S(C)(=O)=O)s4)ccc3F)cn2c1 [Compound 109] | label 0
O=C(Nc1ccc(F)c(-c2cn3cc(-c4ccccc4)cnc3n2)c1)N1CCCC1 [Compound 358] | label 1
CN(C)C(=O)Nc1ccc(F)c(-c2cn3cc(C4=CCOCC4)cnc3n2)c1 [Compound 324] | label 0
O=C(Nc1cnc2nc(-c3cc(NC(=O)N4CCCC4)ccc3F)cn2c1)C1CCCN1 (stereo not drawn) [Compound 121] | label 0
Cc1nc(C)c(C(=O)Nc2ccc(F)c(-c3cn4cc(-c5cnoc5)cnc4n3)c2)o1 [Compound 367] | label 0
Cc1nc(C)c(C(=O)Nc2ccc(F)c(-c3cn4cc(NC(=O)[C@H]5CCCO5)cnc4n3)c2)o1 [Compound 164] | label 1
Cc1nc(C)c(C(=O)Nc2ccc(F)c(-c3cn4cc(-c5sc(C)nc5C)cnc4n3)c2)o1 [Compound 365] | label 1
CC(C)OC(=O)Nc1cnc2nc(-c3cc(NC(=O)c4ccc(F)o4)ccc3F)cn2c1 [Compound 63] | label 1
CC(C)OC(=O)Nc1cnc2nc(-c3cc(NC(=O)c4cnco4)ccc3Cl)cn2c1 [Compound 52] | label 0
CCC(C)OC(=O)Nc1cnc2nc(-c3cc(NC(=O)c4oc(C)nc4C)ccc3F)cn2c1 (stereo not drawn) [Compound 309] | label 1
Cc1ncc(C(=O)Nc2ccc(F)c(-c3cn4cc(NC(=O)OC(C)C)cnc4n3)c2)o1 [Compound 95] | label 1

###

System: Trypanosoma cruzi amastigotes (Tulahuen strain expressing Lac-Z) cultured in 3T3 fibroblast cells
method description: microbe, parasite or virus in culture
Assay type: cell-based
cond: Trypanosoma cruzi, TULAHUEN, Fibroblast, T. cruzi amastigotes in 3T3 fibroblast cells; read-out: T cruzi EC50
pEC50: −log10 of the molar value.
pEC50 below 7 gives 0; pEC50 at or above it gives 1.

smiles representation | group label
Cc1nc(C)c(C(=O)Nc2ccc(F)c(-c3cn4cc(N5CCC5)cnc4n3)c2)o1 | 0
O=C(Nc1ccc(F)c(-c2cn3cc(OCC4CC4)cnc3n2)c1)N1CCCC1 | 1
CC(C)OC(=O)Nc1cnc2nc(-c3cc(NC4=NCC(C)(C)O4)ccc3F)cn2c1 | 0
O=C(Nc1ccc(Cl)c(-c2cn3cc(-c4ccccn4)cnc3n2)c1)N1CCCC1 | 1
Cc1nc(C)c(C(=O)Nc2ccc(F)c(-c3cn4cc(-c5ccc(CCN(C)C)cc5)cnc4n3)c2)o1 | 0
Cc1nc(C)c(C(=O)Nc2ccc(F)c(-c3cn4cc(-c5ncc(F)cc5C)cnc4n3)c2)o1 | 1
CN(C)C(=O)Nc1ccc(F)c(-c2cn3cc(N(C)C)cnc3n2)c1 | 0
O=C(Nc1ccc(F)c(-c2cn3cc(-c4ccccn4)cnc3n2)c1)N1CC(F)C1 | 0

###

Test system: L. donovani HU3 strain in mouse peritoneal macrophages
method description: Assay for proliferation of Leishmania parasites in infected mouse peritoneal macrophages (SybrGreen staining, high-content imaging, 5 days)
Type: cell-based, Leishmania donovani
cond: Leishmania donovani, Peritoneal macrophage, L. donovani in mouse peritoneal macrophages, inhibition of proliferation; read-out: L. donovani Macrophage EC50

compound | assay system | measurement units | operator symbol | EC50
CC(C)OC(=O)Nc1cnc2nc(-c3cc(NC(=O)N4CCC(N5CCOCC5)C4)ccc3Cl)cn2c1 (stereo not shown) [Compound 273] | L. donovani HU3 strain in mouse peritoneal macrophages | nM | > | 50000
O=C(Nc1cnc2nc(-c3cc(NC(=O)N4CCCC4)ccc3F)cn2c1)[C@H]1CCCO1 [Compound 126] | L. donovani HU3 strain in mouse peritoneal macrophages | nM | = | 4050
CC(C)OC(=O)Nc1cnc2nc(-c3cc(NC(=O)C(C)OCC(F)(F)F)ccc3Cl)cn2c1 (stereo not shown) [Compound 58] | L. donovani HU3 strain in mouse peritoneal macrophages | nM | = | 10500
CCN(C)C(=O)Nc1ccc(F)c(-c2cn3cc(NC(=O)OC(C)C)cnc3n2)c1 [Compound 9] | L. donovani HU3 strain in mouse peritoneal macrophages | nM | = | 1320
O=C(Nc1cccc(-c2cn3cc(-c4ccccc4)cnc3n2)c1)N1CC[C@@H](F)C1 [Compound 337] | L. donovani HU3 strain in mouse peritoneal macrophages | nM | = | 195
CCN(C)C(=O)Nc1ccc(F)c(-c2cn3cc(C4=CCOCC4)cnc3n2)c1 [Compound 328] | L. donovani HU3 strain in mouse peritoneal macrophages | nM | = | 1500
Cc1nc(C)c(C(=O)Nc2ccc(F)c(-c3cn4cc(NC(=O)C5CCCCO5)cnc4n3)c2)o1 (stereo not shown) [Compound 151] | L. donovani HU3 strain in mouse peritoneal macrophages | nM | = | 429

###

Tested on: Trypanosoma brucei Lister 427 strain, bloodstream form
method description: Assay for proliferation of kinetoplastid parasite Trypanosoma brucei (Cell Titer Glo, 48 hours)
Format: cell-based
cond: Trypanosoma brucei, T. brucei Lister 427 bloodstream form; read-out: T. brucei EC50
The following molecules are shown together with reported EC50 values.

molecule | EC50
CCC(C)Nc1cnc2nc(-c3cc(NC(=O)c4oc(C)nc4C)ccc3F)cn2c1 (stereo not shown) | 109 nM
C=Cc1cnc2nc(-c3cc(NC(=O)c4oc(C)nc4C)ccc3F)cn2c1 | 101 nM
Cc1nc(C)c(C(=O)Nc2ccc(F)c(-c3cn4cc(-c5cnn(C)c5)cnc4n3)c2)o1 | 158 nM
COc1cccc(-c2cnc3nc(-c4cc(NC(=O)c5oc(C)nc5C)ccc4F)cn3c2)n1 | 120 nM
Cc1nc(C)c(C(=O)Nc2ccc(F)c(-c3cn4cc(-c5ncc(F)cc5F)cnc4n3)c2)o1 | 103 nM
Cc1nc(C)c(C(=O)Nc2ccc(F)c(-c3cn4cc(NC5=NC(C)(C)CO5)cnc4n3)c2)o1 | 845 nM
CNCCc1ccc(-c2cnc3nc(-c4cc(NC(=O)c5oc(C)nc5C)ccc4F)cn3c2)cc1 | 968 nM
CC1(O)CN(c2cnc3nc(-c4cc(NC(=O)N5CCCC5)ccc4Cl)cn3c2)C1 | 152 nM
Cc1ccc(-c2cnc3nc(-c4cc(NC(=O)c5oc(C)nc5C)ccc4F)cn3c2)cn1 | 309 nM
O=C(Nc1ccc(F)c(-c2cn3cc(-c4cccnc4)cnc3n2)c1)N1CC(F)C1 | 34 nM
CN(CC(F)(F)F)C(=O)Nc1ccc(F)c(-c2cn3cc(Br)cnc3n2)c1 | 59 nM
Cc1nc(C)c(C(=O)Nc2ccc(F)c(-c3cn4cc(-c5ccncc5)cnc4n3)c2)o1 | 42 nM
Cc1nc(C)c(C(=O)Nc2ccc(F)c(-c3cn4cc(-c5cscn5)cnc4n3)c2)o1 | 425 nM
CC(C)OC(=O)N(C)c1cnc2nc(-c3cc(N(C)C(=O)c4ccc(Cl)o4)ccc3F)cn2c1 | 9320 nM
Cc1nc(C)c(C(=O)Nc2ccc(F)c(-c3cn4cc(NC5=NC(C)CO5)cnc4n3)c2)o1 (stereo not shown) | 1000 nM
Cc1nc(C)c(C(=O)Nc2ccc(F)c(-c3cn4cc(NC5CCC5)cnc4n3)c2)o1 | 494 nM
CC(C)c1cnc2nc(-c3cc(NC(=O)N(C)C)ccc3F)cn2c1 | 145 nM
Cc1cccc(-c2cnc3nc(-c4cc(NC(=O)c5oc(C)nc5C)ccc4F)cn3c2)n1 | 158 nM
Cc1nc(C)c(C(=O)Nc2ccc(F)c(-c3cn4cc(C(C)C)cnc4n3)c2)o1 | 40 nM
